molecular target: human TIMP-1 (human, UniProt P01033 24-207); test: cell-based or functional assay
// reported ID50 in human protease assay (modified assay) per item
Give the value in nM but do not write nM after it.

{"columns": ["BINDER", "QUANTITY_UNIT", "ENDPOINT_VALUE"],
 "data": [
  ["MS-BW-44-2-16 (Fab, V domains shown) VH: QVQLVESGGGLVQPGGSLRLSCAASGFTFSSYAMSWVRQAPGKGLEWVSGISGNGVLIFYADSVKGRFTISRDNSKNTLYLQMNSLRAEDTAVYYCARWFDVWGQGTLVTVSS VL: DIALTQPASVSGSPGQSITISCTGTSSDVGGYNYVSWYQQHPGKAPKLMIYDVSNRPSGVSNRFSGSKSGNTASLTISGLQAEDEADYYCQSYDFVRFMVFGGGTKLTVLG", "nM", 0.3]
]}

Proceeding to the next binder to report its ID50 in human protease assay (modified assay).
Input line: Dear colleague, I am looking for the recorded ID50 in human protease assay (modified assay) of the following binder: MS-BW-44-2 (Fab, V domains shown, Fab) VH: QVQLVESGGGLVQPGGSLRLSCAASGFTFSSYAMSWVRQAPGKGLEWVSGISGNGVLIFYADSVKGRFTISRDNSKNTLYLQMNSLRAEDTAVYYCARFLDIWGQGTLVTVSS VL: DIALTQPASVSGSPGQSITISCTGTSSDVGGYNYVSWYQQHPGKAPKLMIYDVSNRPSGVSNRFSGSKSGNTASLTISGLQAEDEADYYCQSYDFVRFMVFGGGTKLTVLG
Output line: 0.4
